Measured AUC(0-t), listed per entry for reference.
experiment: Tissue distribution of RPM constituents after oral RPM extract; conditions: both, Sprague-Dawley, rat, liver, po, 18 g/kg
Answer format: numeric, µM·h implied, no suffix.

Cc1cc(O)c2c(c1)C(=O)c1cc(O)cc(O)c1C2=O [Emodin, emodin] | 6.36

IN: Item O=C1c2cccc(O)c2C(=O)c2c(O)cc(CO)cc21 [Aloe-emodin, aloe-emodin] has what recorded AUC(0-t)?
OUT: 0.0555

* * *

experiment: in vivo; details: both, Sprague-Dawley, rat, po, 18 g/kg, AUC0-t in liver
reported_metric: AUC(0-t) (µM·h)
Kindly provide the numeric value in µM·h only, without the unit symbol.

IN: Given the entry O=C1c2cc(O)cc(O)c2C(=O)c2c(O)cc(CO)cc21 [Citreorosein] , report its measured AUC(0-t).
OUT: 1.6
